target: Cellular tumor antigen p53 (Homo sapiens) (UniProt P04637); assay: Primary qHTS for small molecule compounds that upregulate eGFP-tagged delta133p53alpha (in N-terminal) cells. (AID 2060322); conditions: NCI-H358 eGFP-delta133p53alpha fluorescence, 24 h; stronger effect = higher value;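 further: cells pre-induced with doxycycline then dosed without doxycycline; series mostly up to about 56 µM; 0% = DMSO vehicle and 100% = reference activator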
Sequence (P04637 whole entry, looked up): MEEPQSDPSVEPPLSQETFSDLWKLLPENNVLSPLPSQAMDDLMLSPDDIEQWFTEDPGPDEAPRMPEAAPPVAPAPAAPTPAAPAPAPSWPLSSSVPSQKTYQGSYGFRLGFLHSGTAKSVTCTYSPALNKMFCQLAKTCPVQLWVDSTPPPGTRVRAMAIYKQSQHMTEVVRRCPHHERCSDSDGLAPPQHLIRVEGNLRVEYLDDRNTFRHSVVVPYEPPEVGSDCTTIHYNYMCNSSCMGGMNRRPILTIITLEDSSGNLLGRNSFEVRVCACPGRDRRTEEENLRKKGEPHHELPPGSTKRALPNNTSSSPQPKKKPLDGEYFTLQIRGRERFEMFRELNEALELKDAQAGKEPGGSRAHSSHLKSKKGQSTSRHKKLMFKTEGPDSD
Inconclusive results are not listed.
MEASURE: activation (%)
Quick reminder: number only, in %, skip the unit.

Known activation results, listed for orientation:
COMPOUND	SYSTEM_TESTED	activation, %
O=C(O)C[C@H]1CCC(=O)[C@@H]1C/C=C\CCOC1OC(CO)C(O)C(O)C1O (some centres not stated)	Cellular tumor antigen p53 (Homo sapiens) (UniProt P04637)	-3.82
O=C(NCc1cccc(O)c1)c1cc2cc(F)ccc2[nH]1	Cellular tumor antigen p53 (Homo sapiens) (UniProt P04637)	0
NC1(c2ccc(NC(=O)c3ccnc(-c4cc(C(=O)O)ccn4)c3)cc2)CC1	Cellular tumor antigen p53 (Homo sapiens) (UniProt P04637)	15.7
CCNC(=O)[C@@H]1CCCN1C(=O)[C@H](CCCN=C(N)N)NC(=O)[C@H](CC(C)C)NC(=O)[C@@H](C)NC(=O)[C@H](Cc1ccc(O)cc1)NC(=O)[C@H](CO)NC(=O)[C@H](Cc1c[nH]c2ccccc12)NC(=O)[C@H](Cc1cnc[nH]1)NC(=O)[C@@H]1CCC(=O)N1	Cellular tumor antigen p53 (Homo sapiens) (UniProt P04637)	-6.33
CC(NCCCc1cccc(C(F)(F)F)c1)c1cccc2ccccc12 (configuration not stated)	Cellular tumor antigen p53 (Homo sapiens) (UniProt P04637)	-2.86
O=C(O)[C@H](CC(=O)N1C[C@H]2CCCC[C@H]2C1)Cc1ccccc1	Cellular tumor antigen p53 (Homo sapiens) (UniProt P04637)	38.3

Hey, Cellular tumor antigen p53 (Homo sapiens) (UniProt P04637) data for `CCOC(=O)N1CCC(n2c(=O)[nH]c3cc(Cl)ccc32)CC1` : activation came out at -16.4

Hey, Cellular tumor antigen p53 (Homo sapiens) (UniProt P04637) data for `CCNC(=O)[C@H]1O[C@@H](n2cnc3c(N)nc(NCCc4ccc(CCC(=O)O)cc4)nc32)[C@H](O)[C@@H]1O` : activation came out at -4.46

Hey, Cellular tumor antigen p53 (Homo sapiens) (UniProt P04637) data for CCOC(=O)C1=C(C)NC2=C(C(=O)CC(C)(C)C2)C1c1ccc(-c2ccccc2)cc1 (configuration not stated) : activation came out at 5.7

Hey, Cellular tumor antigen p53 (Homo sapiens) (UniProt P04637) data for C/C(=C\CC[C@@H](C)[C@H]1CC(O)[C@@]2(C)C3CC[C@H]4C(C)(C)[C@@H](OC5OCC(O)C(O)C5OC5OC(CO)C(O)C(O)C5O)CC[C@@]45C[C@@]35CC(O)[C@]12C)C(=O)O (some centres not stated) : activation came out at -16.8

Hey, Cellular tumor antigen p53 (Homo sapiens) (UniProt P04637) data for `Cc1ccccc1C#Cc1ccc(CCC(=O)O)cc1` : activation came out at 4.3

Hey, Cellular tumor antigen p53 (Homo sapiens) (UniProt P04637) data for `CO[C@H]1O[C@@H]2O[C@@]3(C)CC[C@@H]4[C@@H](C)CC[C@@H]([C@H]1C)[C@@]24OO3` : activation came out at 20
